# TESTED TARGET: PD-1/PD-L1 interaction (PE-labeled human PD-L1-Ig binding to Jurkat cell line over-expressing human PD-1) (Homo sapiens, UniProt Q15116)
# Construct: expressed in transfected cells; host or cells: Jurkat
# Sequence (Q15116 25-288): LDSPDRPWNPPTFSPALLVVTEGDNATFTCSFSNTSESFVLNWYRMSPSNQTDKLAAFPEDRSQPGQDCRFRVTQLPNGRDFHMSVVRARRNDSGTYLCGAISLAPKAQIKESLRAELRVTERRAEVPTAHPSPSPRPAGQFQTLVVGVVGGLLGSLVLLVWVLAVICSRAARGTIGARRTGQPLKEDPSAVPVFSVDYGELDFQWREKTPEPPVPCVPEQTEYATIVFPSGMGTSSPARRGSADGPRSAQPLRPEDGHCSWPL
# PROCEDURE TEXT: Jurkat-PD-1 Cell Binding High-Content Screening Assay (CBA)
# Type: cell-based
# RECORDED CONDITIONS: Jurkat cell line over-expressing human PD-1; PE-labeled PD-L1-Ig 20 nM final; read-out: Jurkat hPD1-PDL1 IC50
MEASURED ENDPOINT: pIC50
# pIC50 is unitless: minus log10 of the molar concentration; print number only

A selection of reference data follows.
CC[C@H](C)[C@@H]1NC(=O)[C@H](Cc2ccc(-c3ccccc3)cc2)NC(=O)[C@H](C(C)C)NC(=O)[C@H](Cc2cccc(C)c2)NC(=O)[C@H](CC(=O)O)NC(=O)[C@H](Cc2ccc(C(=O)O)cc2)NC(=O)[C@H](Cc2ccncc2)NC(=O)CSC[C@@H](C(=O)N[C@@H](CCCN)C(=O)NCCCCCCCCCCC(=O)O)NC(=O)[C@H]([C@@H](C)O)NC(=O)[C@H](C(C)C)NC(=O)[C@H](CC2CCCCC2)NC(=O)[C@H](CCN)NC(=O)[C@@H](CC(C)C)NC(=O)[C@H](CCCN)NC1=O	7.29
CCC(C)[C@@H]1NC(=O)[C@H](Cc2ccc(-c3ccccc3)cc2)NC(=O)[C@H](C(C)C)NC(=O)[C@H](Cc2cccc(C)c2)NC(=O)[C@H](CC(=O)O)NC(=O)[C@H](Cc2ccc(OCC(=O)O)cc2)NC(=O)[C@H](C(C)O)NC(=O)CSC[C@@H](C(=O)N[C@H](CCN)C(=O)NCCCCCCCCCCCC(=O)O)NC(=O)[C@H](C(C)O)NC(=O)[C@H](C(C)C)NC(=O)[C@H](CC2CCCCC2)NC(=O)[C@H](CCN)NC(=O)[C@@H](CC(C)C)NC(=O)[C@H](CCCN)NC1=O (stereo partly shown)	7.66
CCC(C)[C@@H]1NC(=O)[C@H](Cc2ccc(-c3ccccc3)cc2)NC(=O)[C@H](C(C)C)NC(=O)[C@H](Cc2cccc(C)c2)NC(=O)[C@H](CC(=O)O)NC(=O)[C@H](Cc2ccc(OCC(=O)O)cc2)NC(=O)[C@H](C(C)O)NC(=O)CSC[C@@H](C(=O)N[C@@H](CCCN)C(=O)NCCCCCCCCCCCC(=O)O)NC(=O)[C@H](C(C)O)NC(=O)[C@H](C(C)C)NC(=O)[C@H](CC2CCCCC2)NC(=O)[C@H](CCN)NC(=O)[C@@H](CC(C)C)NC(=O)[C@H](CCCN)NC1=O (stereo partly shown)	7.59

// query pIC50 value for entry Cc1cccc(C[C@@H]2NC(=O)[C@H](CC(=O)O)NC(=O)[C@H](Cc3ccc(OCC(=O)O)cc3)NC(=O)[C@H](CN)NC(=O)CSC[C@@H](C(=O)N[C@H](C)CC(=O)NCCCCCCCCCCC(=O)O)NC(=O)[C@H]([C@@H](C)O)NC(=O)[C@H](C(C)C)NC(=O)[C@H](CC3CCCCC3)NC(=O)[C@H](CCN)NC(=O)[C@@H](CC(C)C)NC(=O)[C@H](CCCN)NC(=O)[C@H](CCCNC(N)=O)NC(=O)[C@H](Cc3ccc(-c4ccccc4)cc3)NC(=O)[C@H](C(C)C)NC2=O)c1 7.55
